Data origin, for the record: ChEMBL document CHEMBL3414514

Experiment: Cytotoxicity against human SPCA2 cells after 2 days by MTT assay
Format: functional, cell-based
Conditions: SPCA2, 48 h
As shown below, each of these compounds has a reported IC50 value.
Reported property: IC50 (µM)

>>> reported_result("O/N=C1/C(c2c[nH]c3ccc(OCc4ccccc4)cc23)=Nc2ccc(OCc3ccccc3)cc21")
12
>>> reported_result("O=[N+]([O-])c1ccc2c(c1)/C(=N\\O)C(c1c[nH]c3ccc([N+](=O)[O-])cc13)=N2")
11.2
>>> reported_result("N#Cc1cccc2c1/C(=N\\O)C(c1c[nH]c3cccc(C#N)c13)=N2")
30.9
>>> reported_result("COC(=O)c1ccc2c(c1)/C(=N\\O)C(c1c[nH]c3ccc(C(=O)OC)cc13)=N2")
14.9
>>> reported_result("Cc1ccc(CO/N=C2/C(c3c[nH]c4ccc(Br)cc34)=Nc3ccc(Br)cc32)cc1")
15.1
>>> reported_result("c1ccc(CO/N=C2/C(c3c[nH]c4ccccc34)=Nc3ccccc32)cc1")
21.4
>>> reported_result("Cc1ccc(CO/N=C2/C(c3c[nH]c4ccccc34)=Nc3ccccc32)cc1")
25.4
>>> reported_result("FC(F)(F)c1ccc(CO/N=C2/C(c3c[nH]c4ccc(Br)cc34)=Nc3ccc(Br)cc32)cc1")
12.4
>>> reported_result("Clc1cccc(CO/N=C2/C(c3c[nH]c4ccc(Br)cc34)=Nc3ccc(Br)cc32)c1")
13.5

----------
Experiment: Cytotoxicity against human SPCA2 cells after 2 days by MTT assay
Assay type: functional, cell-based
Conditions: SPCA2, 48 h
Returns: string. Value is TRUE if measured IC50 is below 20 µM, and FALSE if it is greater than or equal to it.

>>> category("FC(F)(F)c1ccc(CO/N=C2/C(c3c[nH]c4ccccc34)=Nc3ccccc32)cc1")
"FALSE"
>>> category("Cc1cccc2c1N=C(c1c[nH]c3c(C)cccc13)/C2=N/O")
"FALSE"
>>> category("CCCCO/N=C1/C(c2c[nH]c3ccccc23)=Nc2ccccc21")
"FALSE"
>>> category("Fc1ccc2c(c1)/C(=N\\OCc1ccccc1)C(c1c[nH]c3ccc(F)cc13)=N2")
"TRUE"
>>> category("COc1ccc2c(c1)/C(=N\\O)C(c1c[nH]c3ccc(OC)cc13)=N2")
"TRUE"
>>> category("Cc1ccc(CO/N=C2/C(c3c[nH]c4ccc(F)cc34)=Nc3ccc(F)cc32)cc1")
"TRUE"
>>> category("N#Cc1ccc2c(c1)/C(=N\\O)C(c1c[nH]c3ccc(C#N)cc13)=N2")
"TRUE"
>>> category("N#Cc1ccc2c(c1)/C(=N\\OCc1ccccc1)C(c1c[nH]c3ccc(C#N)cc13)=N2")
"TRUE"

----------
Test system: HUVEC
Assay: Cytotoxicity against human HUVEC cells after 2 days by MTT assay
Assay type: cell-based
Details: 48 h
Reported property: IC50

>>> reported_result("Cc1ccc2c(c1)/C(=N\\O)C(c1c[nH]c3ccc(C)cc13)=N2")
"> 100 µM"
>>> reported_result("Cc1cccc2c1N=C(c1c[nH]c3c(C)cccc13)/C2=N/OCc1cccc(F)c1")
"> 100 µM"
>>> reported_result("Cc1cccc2c1N=C(c1c[nH]c3c(C)cccc13)/C2=N/O")
"> 100 µM"
>>> reported_result("c1ccc2c(c1)N=C(c1c[nH]c3ccccc13)/C2=N/OCC1CC1")
"> 100 µM"
>>> reported_result("Cc1cccc2c1/C(=N\\O)C(c1c[nH]c3cccc(C)c13)=N2")
"> 100 µM"
>>> reported_result("Fc1ccc(CO/N=C2/C(c3c[nH]c4ccccc34)=Nc3ccccc32)cc1")
"> 100 µM"
>>> reported_result("Cc1ccc(CO/N=C2/C(c3c[nH]c4ccc(F)cc34)=Nc3ccc(F)cc32)cc1")
"> 100 µM"
>>> reported_result("O/N=C1/C(c2c[nH]c3ccc(OCc4ccccc4)cc23)=Nc2ccc(OCc3ccccc3)cc21")
"> 100 µM"
>>> reported_result("Fc1ccc2c(c1)/C(=N\\OCc1ccccc1)C(c1c[nH]c3ccc(F)cc13)=N2")
"> 100 µM"
>>> reported_result("COc1ccc2c(c1)/C(=N\\O)C(c1c[nH]c3ccc(OC)cc13)=N2")
"> 100 µM"

----------
Recorded IC50 values for a group of compounds are listed next.
Assay: Cytotoxicity against human SPCA2 cells after 2 days by MTT assay
Format: functional, cell-based
Conditions: SPCA2, 48 h
Reported property: IC50

>>> reported_result("O/N=C1/C(c2c[nH]c3cc(F)ccc23)=Nc2cc(F)ccc21")
"10 µM"
>>> reported_result("Cc1ccc2c(c1)/C(=N\\O)C(c1c[nH]c3ccc(C)cc13)=N2")
"19.6 µM"
>>> reported_result("Cc1cccc2c1N=C(c1c[nH]c3c(C)cccc13)/C2=N/OCc1cccc(F)c1")
"20.4 µM"
>>> reported_result("Fc1ccc(CO/N=C2/C(c3c[nH]c4ccccc34)=Nc3ccccc32)cc1")
"25.9 µM"
>>> reported_result("O=c1[nH]cc(F)c(=O)[nH]1 [FLUOROURACIL]")
"44.1 µM"
>>> reported_result("COc1ccc2c(c1)/C(=N\\OCc1ccc(F)cc1Cl)C(c1c[nH]c3ccc(OC)cc13)=N2")
"11.1 µM"

----------
Tested on: HUVEC
Test: Cytotoxicity against human HUVEC cells after 2 days by MTT assay
Format: cell-based
Conditions: 48 h
Reported property: IC50

>>> reported_result("O/N=C1/C(c2c[nH]c3ccc(F)cc23)=Nc2ccc(F)cc21")
"> 100 µM"
>>> reported_result("Cc1ccc(CO/N=C2/C(c3c[nH]c4ccc(Br)cc34)=Nc3ccc(Br)cc32)cc1")
"> 100 µM"
>>> reported_result("c1ccc(CO/N=C2/C(c3c[nH]c4ccccc34)=Nc3ccccc32)cc1")
"> 100 µM"
>>> reported_result("FC(F)(F)c1ccc(CO/N=C2/C(c3c[nH]c4ccccc34)=Nc3ccccc32)cc1")
"> 100 µM"
